experiment: NCI Yeast Anticancer Drug Screen. Data for the rad50 strain (AID 155);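 note: 0% = growth of vehicle-only cultures of the same strain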; details: S. cerevisiae rad50 strain growth inhibition; at 50.0 µM; hits give high values
About 79,000 compounds went through this panel and 15% of them were active in at least one assay; those are over-represented in the sample as a whole.
Measured growth inhibition by item
Numbers only here, please. The scale is %.

1. N#Cc1nc(C2CCC2)oc1N : 2.3
2. C/C(=N\N=P(c1ccccc1)(c1ccccc1)c1ccccc1)C(C)(C)C : 8.35
3. CCCC1(CC)COC(c2ccc(C)cc2)OC1 (stereo unspecified) : 13.8

Which growth inhibition reading was recorded for the molecule C#[N+]CCOP(=O)(OCC1OC(n2cc(C)c(=O)[nH]c2=O)CC1N=[N+]=[N-])O[C@H]1CC[C@@]2(C)C(=CC[C@H]3[C@@H]4CC[C@H](C(C)CCCC(C)C)[C@@]4(C)CC[C@@H]32)C1 (stereo partly specified) ? -18.8

Entry CC(C)(C)C(=O)N1C(C(=O)O)Cc2ccccc2[C@@H]1Cc1ccccc1 (stereo partly specified) : reported growth inhibition = ? -6.9

Record request: growth inhibition value, item O=S(=O)(O)CCCCCO -6.45

Value lookup for growth inhibition; key = CCCNC1=C(C(=O)OCC)C(=O)CO1 -12.4

Look up growth inhibition: CC(=Nc1cccc(C(F)(F)F)c1)c1c(O)cc(C)oc1=O 9.25

So what does the record say about growth inhibition for CCCCCCCCN1N=CC(CC)C1CCC (stereo unspecified) ? 3.15

Look at this molecule and give its reported growth inhibition. N#CCCCN1C(=O)c2ccccc2C1=O -22.1

Please report the recorded growth inhibition for CCCc1cc(OC(=O)c2c(O)cc(OC)cc2CCC)cc(O)c1C(=O)O . 35.1
